# testedSystem: Plasmodium falciparum protein kinase 6 (PK6, PF3D7_1337100) (UniProt Q8IDW1)
# Sequence (Q8IDW1 1-305): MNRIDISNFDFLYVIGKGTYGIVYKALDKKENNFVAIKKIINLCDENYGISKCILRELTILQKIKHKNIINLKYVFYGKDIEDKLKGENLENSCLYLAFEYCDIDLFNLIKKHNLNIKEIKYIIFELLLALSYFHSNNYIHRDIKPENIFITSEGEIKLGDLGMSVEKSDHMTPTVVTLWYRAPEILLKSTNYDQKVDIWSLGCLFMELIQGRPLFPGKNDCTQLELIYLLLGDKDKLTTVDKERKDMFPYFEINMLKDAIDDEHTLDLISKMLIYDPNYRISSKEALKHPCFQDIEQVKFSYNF
# assay: PfPK6 kinase inhibitors, biochemical, TCAMS library (AID 1159586)
# experimentalContext: recombinant PfPK6, Kinase-Glo ATP depletion luminescence
Results with a measured potency or affinity are listed apart. The source made the active and inactive calls. No rule for the calls is given here.
endpointLabel: outcome

1) COCCNCc1cccc(-c2ccccc2CN(C(=O)Nc2ccccc2)C2CCN(Cc3ccccc3)CC2)c1
inactive
2) C/C=C1/CN2CC[C@H]1C[C@H]2[C@H](O)c1ccnc2ccc(OC)cc12
inactive
3) O=C(/C=C/c1cc(C(F)(F)F)ccc1F)N1CCC(CN2CCC(c3c[nH]c4ccccc34)CC2)CC1
inactive
4) CC[C@H]1CN2CC[C@H]1C[C@@H]2[C@@H](O)c1ccnc2ccc(OC)cc12
inactive
5) COC(=O)c1ccc(CC(C)NCC(O)c2cccc(I)c2)cc1 (stereo not drawn)
inactive
6) O=C(NC1CCC(CN2CCC(c3c[nH]c4ccccc34)CC2)CC1)NC12CC3CC(CC(C3)C1)C2 (stereo not drawn)
inactive
7) NC(=O)c1ccc2[nH]cc(C3CCN(CC4CCC(NC(=O)/C=C/c5ccc(Cl)c(Cl)c5)CC4)CC3)c2c1 (stereo not drawn)
inactive
8) Cc1cc(NC(=O)[C@H](CC(C)C)Nc2ccc(C#N)c3ccccc23)ccc1F
inactive
9) COc1ccc(C(=O)c2ccc3[nH]cc(C4=CCN(C)CC4)c3c2)cc1
inactive
10) C[C@@H](CC1CCCCC1)NCc1ccccc1O
inactive
11) CN(c1cc(NC(=O)c2cccs2)ccn1)C1CCN(Cc2ccccc2)CC1
inactive
12) COC(=O)c1ccc(CC(C)NCC(O)c2cccc(C(F)(F)F)c2)c(Cl)c1 (stereo not drawn)
inactive
13) O=C(Nc1ccc(Oc2ccccc2)cc1)N1CCC(CN2CCC(c3c[nH]c4ccccc34)CC2)CC1
inactive
14) CC[C@H]1CN2CC[C@@H]1C[C@H]2[C@H](O)c1ccnc2ccc(Cl)cc12
inactive
15) CO/C=C(/C(=O)OC)c1ccccc1Oc1cc(Oc2ccccc2C#N)ncn1
inactive
16) CSc1nccc(-c2ccc(S(=O)(=O)NC3CCC(CN4CCC(c5c[nH]c6ccccc56)CC4)CC3)s2)n1 (stereo not drawn)
inactive
17) CC(C)C[C@H](Nc1ccc(C#N)c2ccccc12)C(=O)N[C@@H]1CCCc2ccccc21
inactive
18) CN1CCC(O)(c2ccc(Br)cc2)C(C(O)c2ccc(Br)cc2)C1 (stereo not drawn)
inactive
19) CN(c1cc(NC(=O)c2cccs2)ccn1)C1CCN(Cc2cccc(C#N)c2)CC1
inactive
20) O=C(NC1CCC(CN2CCC(c3c[nH]c4ccccc34)CC2)CC1)c1cc2cccc([N+](=O)[O-])c2[nH]1 (stereo not drawn)
inactive
21) CCC(C)CN1CCC(N(C)c2cc(NC(=O)c3cccc(C)c3)ccn2)CC1 (stereo not drawn)
inactive
22) NCC(=O)c1cc2c(cc1N)OCCO2
inactive
23) Cc1[nH]c2ccc(O)cc2c1C1CCN(CC2CCN(C(=O)/C=C/c3ccc(Cl)c(Cl)c3)CC2)CC1
inactive
24) N#Cc1ccc(N(CCCO)Cc2ccccc2C(F)(F)F)cc1C(F)(F)F
inactive
25) CCOC(=O)CCCN1C(=O)CN=C(c2ccccc2)c2cc(Cl)ccc21
inactive
26) COc1ccc(OC)c([C@H](O)[C@@H](C)NCc2cc(Cl)ccc2O)c1
inactive
27) Cc1[nH]c2ccccc2c1C1=CCN(CCCCC23CCCc4cccc(c42)NC3=O)CC1 (stereo not drawn)
inactive
28) CN1C(=O)[C@H](NC(=O)[C@@H](Cc2ccccc2)NC(=S)Nc2ccccc2)N=C(c2ccccc2)c2ccccc21
inactive
29) O=C1Nc2cccc3c2C1(CCCCCN1CC=C(c2c[nH]c4ccccc24)CC1)CCC3 (stereo not drawn)
inactive
30) CN(C)CCCOc1ccc(CN2CCC(c3c[nH]c4ccc(NCC5CCCCC5)cc34)CC2)cc1
inactive
31) CC[C@H]1CN2CC[C@@H]1C[C@H]2[C@H](O)c1cc(N2CCSCC2)nc2ccc(OC)cc12
inactive
32) Cc1cc(C(=O)NC2CCN(CC3(c4ccc(Cl)cc4)CCC3)CC2)on1
inactive
33) COc1ccc(CC(C)NCC(O)c2cccc(Br)c2)cc1 (stereo not drawn)
inactive
34) CC(=O)Nc1ccc2[nH]cc(C3CCN(CC4CCN(C(=O)/C=C/c5ccc(Cl)c(Cl)c5)CC4)CC3)c2c1
inactive
35) CN(C)c1cccc(CN2CC=C(c3c[nH]c4ccc(Cl)cc34)CC2)c1
inactive
36) CC(Cc1ccc(-c2nc3ccccc3[nH]2)cc1)NCC(O)c1cccc(C(F)(F)F)c1 (stereo not drawn)
inactive
37) O=C(Cc1cc(=O)oc2cc(O)ccc12)NC1CCC(CN2CCC(c3c[nH]c4ccccc34)CC2)CC1 (stereo not drawn)
inactive
38) Cc1nc(-c2ccc(-c3ccc(C(=O)Nc4ccc5c(c4)C4(CCNCC4)CO5)cc3)c(C)c2)no1
inactive
